Test system: 993429-296-R-J1-PDC complex spheroid growth, percent test/control
experimental_protocol: Anticancer human tumor 993429-296-R-J1-PDC patient-derived uterine sarcoma cell line growth inhibition [Asc]
reported_conditions: second compound 1 µM; first compound 0.3 µM; stronger effect = lower value
assay_metric: viability, T/C (%)
Give the value, in units of %, as a plain number.

Worked cases, viability, T/C given:
compound | reported_value
Cc1nc(N2CCC3(CC2)COC(C)C3N)c(CO)nc1Sc1ccnc(N)c1Cl (centres undefined) + CNC(C)C(=O)NC1CN(S(=O)(=O)c2cccc(S(=O)(=O)N3CCC4CCC(C(=O)NC(c5ccccc5)c5ccccc5)N4C(=O)C(NC(=O)C(C)NC)C3)c2)CCC2CCC(C(=O)NC(c3ccccc3)c3ccccc3)N2C1=O | 40
CCN1C(C(=O)NC23CCC(C(=O)O)(CC2)CC3)C(c2cccc(Cl)c2F)C2(C(=O)Nc3cc(Cl)ccc32)C12CCCCC2 (centres undefined) + CNC(C)C(=O)NC1CN(S(=O)(=O)c2cccc(S(=O)(=O)N3CCC4CCC(C(=O)NC(c5ccccc5)c5ccccc5)N4C(=O)C(NC(=O)C(C)NC)C3)c2)CCC2CCC(C(=O)NC(c3ccccc3)c3ccccc3)N2C1=O | 40.9
Cc1nc(N2CCC3(CC2)COC(C)C3N)c(CO)nc1Sc1ccnc(N)c1Cl (centres undefined) + Cc1c(S(C)(=O)=O)c(-c2cc(F)cc(N3CCN(c4ccc(NS(=O)(=O)c5ccc(NC(CCN6CCC(C(=O)OCCCP(=O)(O)O)CC6)CSc6ccccc6)c(S(=O)(=O)C(F)(F)F)c5)cc4)CC3)c2)c(-c2ccc(Cl)cc2)n1C(C)C | 14.5

For record CCN1C(C(=O)NC23CCC(C(=O)O)(CC2)CC3)C(c2cccc(Cl)c2F)C2(C(=O)Nc3cc(Cl)ccc32)C12CCCCC2 (centres undefined) + Cc1c(S(C)(=O)=O)c(-c2cc(F)cc(N3CCN(c4ccc(NS(=O)(=O)c5ccc(NC(CCN6CCC(C(=O)OCCCP(=O)(O)O)CC6)CSc6ccccc6)c(S(=O)(=O)C(F)(F)F)c5)cc4)CC3)c2)c(-c2ccc(Cl)cc2)n1C(C)C the listed viability, T/C is 61.4

----------
Test system: 993429-296-R-J1-PDC complex spheroid growth, percent test/control
experimental_protocol: Anticancer human tumor 993429-296-R-J1-PDC cell line growth inhibition [Asc];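 also: spheroids exposed to compounds for seven days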
reported_conditions: second compound 0.0949 µM; first compound 0.316 µM; stronger effect = lower value
Strictly below 90% in viability, T/C: met. Otherwise: not met.

Is viability, T/C of C=C(F)C(=O)N1CCN(c2nc(OCC3CCCN3C)nc3c2CCN(c2cccc4cccc(Cl)c24)C3)CC1CC#N (stereo unspecified) + CCN1C(C(=O)NC23CCC(C(=O)O)(CC2)CC3)C(c2cccc(Cl)c2F)C2(C(=O)Nc3cc(Cl)ccc32)C12CCCCC2 strictly below 90%? met

Is viability, T/C of C=CC(=O)N1CCN(c2nc(=O)n(-c3c(C)ccnc3C(C)C)c3nc(-c4c(O)cccc4F)c(F)cc23)C(C)C1 (stereo unspecified) + CCN1C(C(=O)NC23CCC(C(=O)O)(CC2)CC3)C(c2cccc(Cl)c2F)C2(C(=O)Nc3cc(Cl)ccc32)C12CCCCC2 strictly below 90%? not met

Is viability, T/C of CNC(C)C(=O)NC1CN(S(=O)(=O)c2cccc(S(=O)(=O)N3CCC4CCC(C(=O)NC(c5ccccc5)c5ccccc5)N4C(=O)C(NC(=O)C(C)NC)C3)c2)CCC2CCC(C(=O)NC(c3ccccc3)c3ccccc3)N2C1=O (stereo unspecified) + CCN1C(C(=O)NC23CCC(C(=O)O)(CC2)CC3)C(c2cccc(Cl)c2F)C2(C(=O)Nc3cc(Cl)ccc32)C12CCCCC2 strictly below 90%? met

Is viability, T/C of COc1c(OCCCN2CCOCC2)ccc2c3n(c(=NC(=O)c4cnc(N)nc4)nc12)CCN3 + CCN1C(C(=O)NC23CCC(C(=O)O)(CC2)CC3)C(c2cccc(Cl)c2F)C2(C(=O)Nc3cc(Cl)ccc32)C12CCCCC2 strictly below 90%? met

Is viability, T/C of O=C(c1ccc(F)c(F)c1Nc1ccc(I)cc1F)N1CC(O)([C@@H]2CCCCN2)C1 + CCN1C(C(=O)NC23CCC(C(=O)O)(CC2)CC3)C(c2cccc(Cl)c2F)C2(C(=O)Nc3cc(Cl)ccc32)C12CCCCC2 strictly below 90%? met
